- Test system: DMS 273 small cell lung
- EXPERIMENTAL DETAILS: NCI tumour cell line growth inhibition, 48 h
ASSAY READOUT: TGI

compound=O=[N+]([O-])c1ccc(/C=C/c2ccc(N=Nc3ccc(/C=C/c4ccc([N+](=O)[O-])cc4S(=O)(=O)O)c(S(=O)(=O)O)c3)cc2S(=O)(=O)O)c(S(=O)(=O)O)c1 readout_value="> 100 µM"

Entry C[n+]1c2ccccc2c(CNC(CCC(N)=O)C(=O)O)c2ccccc21 (centres undefined) has what TGI?
4.44 µM

====

- Test system: NCI-H460 lung
- EXPERIMENTAL DETAILS: NCI tumour cell line growth inhibition, 48 h
ASSAY READOUT: TGI

Known results for compounds:
compound=CCc1cccc(CC)c1NC(=S)NC(=O)c1ccc(Br)cc1 measured_target="NCI-H460 lung" readout_value="41.6 µM"
compound=COc1ccc(CNc2nc(NCc3ccc(OC)cc3)nc(Nc3ccccc3)n2)cc1 measured_target="NCI-H460 lung" readout_value="> 100 µM"
compound=C=C1CC/C=C(/C(=O)O)CC[C@H]2[C@@H]1CC2(C)C measured_target="NCI-H460 lung" readout_value="> 100 µM"
compound="O=[N+]([O-])c1ccc(NC2OCC(O)C(O)C2O)cc1 (stereo unspecified)" measured_target="NCI-H460 lung" readout_value="> 100 µM"
compound=CC(=O)Oc1ccn2nc(C)c(Br)c2c1Br measured_target="NCI-H460 lung" readout_value="53.1 µM"
compound=COc1c2ccccc2c(O)c2c(=O)c(C(=O)O)cn(C)c12 measured_target="NCI-H460 lung" readout_value="> 100 µM"
compound=O=C1c2cccnc2-c2nc(/C=C/c3ccccc3)cc3c2c1nc1ccccc13 measured_target="NCI-H460 lung" readout_value="1.27 µM"
compound="CCOP(=O)(CC(=O)C1=C(O)C(CCCNC(=O)OC(C)(C)C)N(Cc2ccc(OC)c(OC)c2)C1=O)OCC (stereo unspecified)" measured_target="NCI-H460 lung" readout_value="> 100 µM"

Now consider a different compound.
Entry "FC(F)(F)c1ccc(C=NC23CC4CC(CC(C4)C2)C3)cc1" has what TGI?
> 100 µM
